Data provenance: patent US20130225543A1

system.tested: HDAC4 (Homo sapiens)
Sequence (P56524 whole entry): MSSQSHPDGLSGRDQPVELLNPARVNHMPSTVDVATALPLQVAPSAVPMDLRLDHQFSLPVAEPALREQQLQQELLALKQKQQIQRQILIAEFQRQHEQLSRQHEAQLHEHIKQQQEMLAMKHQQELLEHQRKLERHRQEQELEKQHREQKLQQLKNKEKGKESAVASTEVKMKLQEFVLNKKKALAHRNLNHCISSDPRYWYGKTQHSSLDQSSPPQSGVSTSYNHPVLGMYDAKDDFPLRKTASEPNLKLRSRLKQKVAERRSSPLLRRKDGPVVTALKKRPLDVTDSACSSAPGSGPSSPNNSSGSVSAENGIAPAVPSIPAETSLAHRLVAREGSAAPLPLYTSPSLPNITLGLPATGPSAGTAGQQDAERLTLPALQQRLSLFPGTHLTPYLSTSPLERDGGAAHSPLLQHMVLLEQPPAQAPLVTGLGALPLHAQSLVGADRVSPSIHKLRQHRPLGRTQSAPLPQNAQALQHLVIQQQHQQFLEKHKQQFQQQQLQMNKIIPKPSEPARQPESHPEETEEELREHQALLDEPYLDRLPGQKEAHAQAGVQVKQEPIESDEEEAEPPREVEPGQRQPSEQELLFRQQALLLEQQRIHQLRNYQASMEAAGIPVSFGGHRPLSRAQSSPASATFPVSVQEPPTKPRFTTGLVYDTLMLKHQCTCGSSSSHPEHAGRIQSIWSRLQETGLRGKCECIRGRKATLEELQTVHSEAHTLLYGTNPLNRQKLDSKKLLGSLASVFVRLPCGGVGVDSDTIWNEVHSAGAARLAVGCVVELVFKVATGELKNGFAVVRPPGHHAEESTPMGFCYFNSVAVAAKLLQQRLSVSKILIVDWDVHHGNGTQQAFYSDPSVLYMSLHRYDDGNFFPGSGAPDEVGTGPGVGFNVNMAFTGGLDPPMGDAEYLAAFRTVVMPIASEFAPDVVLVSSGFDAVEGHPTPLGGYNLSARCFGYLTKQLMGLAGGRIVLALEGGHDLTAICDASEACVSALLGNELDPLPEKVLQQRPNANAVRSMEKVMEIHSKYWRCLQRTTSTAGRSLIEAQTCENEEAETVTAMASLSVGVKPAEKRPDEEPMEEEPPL
experiment: Kinetic HDAC enzyme inhibition assay, HDAC4
cond: recombinant HDAC
pIC50: −log10 of the molar value.
attribute.measured: pIC50

[in] If you can, please state the reported pIC50 value of "O=C(CCCCCCNC(=O)c1ccc(C(O)(c2ccccn2)c2ccccn2)cc1)NO" .
[out] < 5.00

[in] Field entry: "COC(c1ccc(F)cc1)(c1ccc(F)cc1)c1ccc(C(=O)NCCCCCCC(=O)NO)cc1"
[out] < 5.00

[in] Field entry: "O=C(NO)c1cnc(NC2(c3ccccc3)CC2)nc1"
[out] 5.80

Next:
[in] If you can, please state the reported pIC50 value of "Cc1ccccc1N(c1ccccc1)c1ncc(C(=O)NCCCCCCC(=O)NO)cn1" .
[out] < 5.00
